target: LTB4 receptors (Homo sapiens, UniProt Q15722); construct: neutrophils were purified from venous blood of normal human donors; endogenous in cells; assay: LTB4 Receptor Binding Assay (inhibition of specific (3H) LTB4 binding to neutrophils); conditions: 0.6nM (3H) LTB4, human neutrophils, 0°C, 45 minutes, pH 7.4
Sequence (Q15722 whole entry): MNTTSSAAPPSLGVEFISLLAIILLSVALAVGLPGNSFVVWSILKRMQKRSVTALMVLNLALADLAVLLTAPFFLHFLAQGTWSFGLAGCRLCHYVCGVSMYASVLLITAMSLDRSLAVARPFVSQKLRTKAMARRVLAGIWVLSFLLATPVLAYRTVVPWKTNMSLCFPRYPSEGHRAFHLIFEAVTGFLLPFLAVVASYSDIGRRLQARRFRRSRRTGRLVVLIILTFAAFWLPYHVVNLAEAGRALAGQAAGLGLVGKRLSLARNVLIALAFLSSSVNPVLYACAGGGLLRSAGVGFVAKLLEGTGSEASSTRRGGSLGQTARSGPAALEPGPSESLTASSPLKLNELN
So I've got a bunch of molecules here, and I need their pIC50 values.
Recall that pIC50 is obtained by taking minus log10 of the concentration measured in molar.

Which value of pIC50 has been reported for CCCCCCCCC(O)/C=C/C=C/c1ccc(C(O)CCCC(=O)O)s1 (stereo not drawn) in the records?
5.20

Which value of pIC50 has been reported for CCCCCCCCC(O)/C=C/C=C/c1ccc(C(=O)CCCC(=O)O)s1 (stereo not drawn) in the records?
5.39

Which value of pIC50 has been reported for CCCCCCCCC(O)/C=C/C=C/c1ccccc1C(=O)CCCC(=O)O (stereo not drawn) in the records?
5.52
